Below, each of the binders is paired with its reported Rel EC50 value.
Biological target: T1, Recombinant DR3-Fc (R&D Systems, cat. #943-D3) (UniProt Q93038 25-199, limits assumed)
T1 construct: dimeric MW~92 kDa; also called DR3 receptor; Fc-DR3; not shown: Fc part of the bought fusion
T1 sequence (looked up): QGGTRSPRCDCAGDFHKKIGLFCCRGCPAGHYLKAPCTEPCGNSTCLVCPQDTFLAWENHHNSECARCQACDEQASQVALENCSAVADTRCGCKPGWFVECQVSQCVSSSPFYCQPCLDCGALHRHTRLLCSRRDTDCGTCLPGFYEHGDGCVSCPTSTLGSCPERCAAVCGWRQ
Test: ELISA, DR3-Fc immobilized
Protocol: All ELISA-based measurements were collected in triplicate, and error values report the standard error between measurements. […] Plates were washed three times with TBST. […] 100 μl/well POD Chemiluminescence substrate (Roche, cat #: 11582950001) was added immediately prior to reading plate luminescence using a Molecular Devices M5 plate reader with a delay setting of 100 ms. […]

Qu. I have this binder here, TL1W84 (His-TEV-TL1A E120H) (ligand, also called TL1W84 (E120H)) HHHHHHENLYFQGLKGQEFAPSHQQVYAPLRADGDKPRAHLTVVRQTPTQHFKNQFPALHWHHELGLAFTKNRMNYTNKFLLIPESGDYFIYSQVTFRGMTSECSEIRQAGRPNKPDSITVVITKVTDSYPEPTQLLMGTKSVCEVGSNWFQPIYLGAMFSLQEGDKLMVNVSDISLVDYTKEDKTFFGAFLL , and I need its recorded Rel EC50.
Ans. 7 ratio (head: nM)

Data credit: patent US20220056104A1
